Reference for the values: ChEMBL document CHEMBL1201862

biological target: Large T antigen (Simian virus 40); format: functional, Betapolyomavirus macacae;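 also: Confirmatory-stage PubChem screen for compounds that inhibit SV40 T antigen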
Sequence (P03070 whole entry): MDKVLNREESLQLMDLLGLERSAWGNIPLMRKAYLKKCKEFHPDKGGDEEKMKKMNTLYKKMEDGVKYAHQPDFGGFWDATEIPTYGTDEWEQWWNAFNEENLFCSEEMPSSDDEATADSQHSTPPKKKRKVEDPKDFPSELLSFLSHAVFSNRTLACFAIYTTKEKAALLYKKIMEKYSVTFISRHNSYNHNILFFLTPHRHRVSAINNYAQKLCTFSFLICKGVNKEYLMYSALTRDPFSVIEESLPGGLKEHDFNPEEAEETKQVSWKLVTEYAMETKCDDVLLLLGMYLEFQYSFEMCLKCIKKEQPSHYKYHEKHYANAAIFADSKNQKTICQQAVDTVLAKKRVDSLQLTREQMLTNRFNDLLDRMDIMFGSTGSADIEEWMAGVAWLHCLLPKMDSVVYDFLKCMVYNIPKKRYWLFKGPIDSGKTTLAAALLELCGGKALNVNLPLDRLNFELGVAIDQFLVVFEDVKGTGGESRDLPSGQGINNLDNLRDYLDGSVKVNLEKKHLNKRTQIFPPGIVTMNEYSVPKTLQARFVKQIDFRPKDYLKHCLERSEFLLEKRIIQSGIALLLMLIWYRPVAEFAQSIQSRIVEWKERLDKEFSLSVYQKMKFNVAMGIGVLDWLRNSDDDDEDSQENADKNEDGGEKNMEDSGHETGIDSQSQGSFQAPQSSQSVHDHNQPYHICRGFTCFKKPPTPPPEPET
Calls of active or inactive are those of the source.
Catalogue of molecules with associated IC50
experimental_readout: IC50

N=C1/C(=C/c2ccc(Br)o2)C(=O)N=C2SC(CC(=O)N3CCCC3)=NN12; 58.3 µM (active)
COc1cc(/C=N/Nc2nc3ccccc3[nH]2)cc(OC)c1O; 7.09 µM (active)
COc1cc(-c2nnc(SCc3cc(=O)oc4cc(O)c(O)cc34)o2)cc(OC)c1OC; 2.8 µM (active)
Cc1ccc(S(=O)(=O)N2CCCOC2CNC(=O)C(=O)NCCc2c[nH]c3ccccc23)cc1 (configuration not stated); 86.8 µM (active)
C(=N\c1ccc(N2CCOCC2)cc1)/c1c[nH]c2ccccc12; 4.34 µM (active)
CCCCn1c(=O)c2ccccc2n2c(S)nnc12; 11.5 µM (active)
CCc1ccc2nc3n[nH]c(N)c3cc2c1; 13.5 µM (active)

====

target: Polyadenylate-binding protein 1 (Homo sapiens, UniProt P11940); assay: PABP1 MLLE–PAM2 binding inhibitor potency, dose response, biochemical, fluorescence polarization, FITC-PAM2 peptide (AID 602259); type: functional; conditions: read-out: IC50_Mean
Sequence (P11940 whole entry): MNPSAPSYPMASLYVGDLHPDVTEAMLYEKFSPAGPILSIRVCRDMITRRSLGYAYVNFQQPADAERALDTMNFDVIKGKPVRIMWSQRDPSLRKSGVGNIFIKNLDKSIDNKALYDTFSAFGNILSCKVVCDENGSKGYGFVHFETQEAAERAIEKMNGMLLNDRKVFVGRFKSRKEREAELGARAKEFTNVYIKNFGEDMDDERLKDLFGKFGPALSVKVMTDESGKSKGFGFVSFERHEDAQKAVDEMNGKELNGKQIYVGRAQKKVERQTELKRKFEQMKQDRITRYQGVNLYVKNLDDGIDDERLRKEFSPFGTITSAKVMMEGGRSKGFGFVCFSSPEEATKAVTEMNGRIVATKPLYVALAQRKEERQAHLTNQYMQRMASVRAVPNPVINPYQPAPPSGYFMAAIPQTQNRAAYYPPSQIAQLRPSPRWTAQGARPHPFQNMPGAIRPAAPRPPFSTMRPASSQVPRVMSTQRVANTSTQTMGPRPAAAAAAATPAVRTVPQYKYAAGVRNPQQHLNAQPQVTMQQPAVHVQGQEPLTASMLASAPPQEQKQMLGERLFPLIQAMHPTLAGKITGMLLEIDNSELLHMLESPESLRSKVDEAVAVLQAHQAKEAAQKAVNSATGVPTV
Active and inactive are the calls of the source.
experimental_readout: IC50

Cc1ccc(-n2c(SCC(=O)N/N=C/c3c(C)nn(-c4ccccc4)c3C)nc3ccccc3c2=O)cc1; > 66 µM (inactive)
CCCNc1cc(S)nc(N)n1; > 66 µM (inactive)
NC(S)=NN=C1c2cc(S(=O)(=O)N3CCOCC3)ccc2-c2ccc(S(=O)(=O)N3CCOCC3)cc21; > 66 µM (inactive)
Cc1cccc(-n2c(N)cc(=O)nc2SCC(=O)Nc2cc(C)on2)c1; > 66 µM (inactive)
Oc1cc(NCCc2cccnc2)cc2cccnc12; 42.3 µM (inactive)
NC(=S)N=Nc1c(O)[nH]c2c(Cl)cc(Cl)cc12; > 66 µM (inactive)
CN1C=CC2=C(C#N)C(N)C(C#N)(C#N)[C@H](c3ccccc3)[C@H]2C1 (some centres not stated); 58.9 µM (inactive)
CC[n+]1c(-c2ccccc2)c2cc(N)ccc2c2ccc(N)cc21 [HOMIDIUM BROMIDE]; 40.4 µM (inactive)
Cc1cccn2c(=O)c3cc(C(=O)N(C)C)n(C)c3nc12; 39.3 µM (inactive)
COc1cccc(-c2nc(CSCC(=O)NCC3CCCO3)c(C)o2)c1 (configuration not stated); > 66 µM (inactive)
Cc1c(C(=O)NCc2ccc3c(c2)cc(C)n3C)cccc1[N+](=O)[O-]; > 66 µM (inactive)
CC1CCN(c2ccccc2NC(=S)NC(=O)C(C)(C)C)CC1; > 66 µM (inactive)

====

target: Corticotropin-releasing factor receptor 2/Corticotropin-releasing factor-binding protein (Homo sapiens, UniProt P24387+Q13324); test: Dose Response confirmation of uHTS hits for small molecule antagonists of the CRF-binding protein and CRF-R2 receptor complex.; assay type: functional; conditions: read-out: IC50_Mean
Sequence (Q13324 whole entry): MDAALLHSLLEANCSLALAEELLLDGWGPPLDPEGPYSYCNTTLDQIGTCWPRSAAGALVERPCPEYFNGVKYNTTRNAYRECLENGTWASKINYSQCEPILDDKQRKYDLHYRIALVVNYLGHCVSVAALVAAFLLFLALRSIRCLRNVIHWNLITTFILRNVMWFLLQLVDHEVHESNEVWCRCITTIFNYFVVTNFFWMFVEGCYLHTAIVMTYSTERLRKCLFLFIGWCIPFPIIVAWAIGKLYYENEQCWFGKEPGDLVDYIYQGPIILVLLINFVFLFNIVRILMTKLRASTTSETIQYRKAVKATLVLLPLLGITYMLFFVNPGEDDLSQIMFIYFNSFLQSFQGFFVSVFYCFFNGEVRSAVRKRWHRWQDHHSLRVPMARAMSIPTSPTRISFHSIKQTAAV
Sequence (P24387 whole entry): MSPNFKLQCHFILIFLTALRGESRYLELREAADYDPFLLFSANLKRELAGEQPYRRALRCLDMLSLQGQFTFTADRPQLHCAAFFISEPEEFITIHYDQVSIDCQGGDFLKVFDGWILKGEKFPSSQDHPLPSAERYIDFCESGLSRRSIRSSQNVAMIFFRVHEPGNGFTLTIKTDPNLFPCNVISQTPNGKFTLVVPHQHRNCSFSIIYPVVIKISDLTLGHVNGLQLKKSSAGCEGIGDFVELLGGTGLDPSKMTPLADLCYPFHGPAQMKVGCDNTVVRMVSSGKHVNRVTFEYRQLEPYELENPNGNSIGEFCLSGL
Calls of active or inactive are those of the source.
Outcomes: active, inactive

CCOC(=O)C(Cc1ccccc1)NC(=O)CCc1nnc2ccc(N3CCCC3)nn12 (stereo unspecified); inactive
CN(Cc1ccccn1)C(=O)C1CCC(=O)N(Cc2cccc(C(F)(F)F)c2)C1 (stereo unspecified); inactive
Cc1ccc(N2C(=O)CC(=O)NC2=O)c(C)c1; inactive
COc1cc2nc3c(O)n4c(nc-3c2cc1OC)SCCC4; active
COC(=O)c1ccc(CNC(=O)COC(=O)CC23CC4CC(CC(Br)(C4)C2)C3)cc1; inactive
CCN=C(S)Nc1cc(OC)c(NC(=O)c2ccco2)cc1OC; inactive
